Reported IC50 is given for each of the following molecules.
system.tested: Prostaglandin G/H synthase 1 (Homo sapiens, UniProt P23219)
Sequence (P23219 whole entry): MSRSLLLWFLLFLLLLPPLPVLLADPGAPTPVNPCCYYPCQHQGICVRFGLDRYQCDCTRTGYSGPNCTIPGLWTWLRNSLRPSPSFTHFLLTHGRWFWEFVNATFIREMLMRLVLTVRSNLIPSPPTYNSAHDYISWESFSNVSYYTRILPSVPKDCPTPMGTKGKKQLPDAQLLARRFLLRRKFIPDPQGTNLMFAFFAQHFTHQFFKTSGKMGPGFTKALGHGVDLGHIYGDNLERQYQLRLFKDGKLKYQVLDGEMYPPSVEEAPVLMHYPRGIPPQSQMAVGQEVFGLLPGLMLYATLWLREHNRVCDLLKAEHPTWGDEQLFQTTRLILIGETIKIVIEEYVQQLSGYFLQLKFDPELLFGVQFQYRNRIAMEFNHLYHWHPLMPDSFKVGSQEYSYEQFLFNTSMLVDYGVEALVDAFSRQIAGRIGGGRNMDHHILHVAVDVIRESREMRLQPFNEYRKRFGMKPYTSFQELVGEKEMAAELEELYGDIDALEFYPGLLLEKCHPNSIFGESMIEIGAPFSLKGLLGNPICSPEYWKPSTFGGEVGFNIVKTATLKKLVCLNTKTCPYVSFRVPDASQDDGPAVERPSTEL
Expressed in µM, but write only the number.

COc1cccc(-c2cc(=O)c3ccccc3o2)c1N : 1

Now, please, on to the next molecule.
Form: molecule = C[S+]([O-])c1ccc(-c2nc(-c3ccncc3)c(-c3ccc(F)cc3)[nH]2)cc1 (configuration not stated) [SB-203580] ; IC50 = 2

* * *

system.tested: Proto-oncogene tyrosine-protein kinase Src (Homo sapiens, UniProt P12931)
Sequence (P12931 2-536 limits assumed): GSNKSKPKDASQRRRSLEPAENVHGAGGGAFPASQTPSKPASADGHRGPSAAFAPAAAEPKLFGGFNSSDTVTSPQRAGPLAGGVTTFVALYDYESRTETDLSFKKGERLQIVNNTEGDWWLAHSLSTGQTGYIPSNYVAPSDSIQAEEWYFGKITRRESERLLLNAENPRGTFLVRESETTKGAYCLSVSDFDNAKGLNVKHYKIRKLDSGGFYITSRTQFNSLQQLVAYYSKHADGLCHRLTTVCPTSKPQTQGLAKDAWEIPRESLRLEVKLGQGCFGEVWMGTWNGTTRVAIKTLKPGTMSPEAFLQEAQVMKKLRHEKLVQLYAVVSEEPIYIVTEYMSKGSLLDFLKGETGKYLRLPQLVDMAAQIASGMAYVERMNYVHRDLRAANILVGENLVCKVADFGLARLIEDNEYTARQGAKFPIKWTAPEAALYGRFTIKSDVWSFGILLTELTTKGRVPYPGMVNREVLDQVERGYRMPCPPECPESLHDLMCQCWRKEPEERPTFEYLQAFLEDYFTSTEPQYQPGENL
# pIC50 values compiled below
Conceptually, pIC50 converts a concentration in mol/L into minus its log10.

O=C1Nc2ccccc2/C1=C1/Nc2ccccc2C1=O [INDIRUBIN] : 4.74

Entry O=C1/C(=C2\Nc3ccccc3C2=O)Nc2ccccc21 [INDIGO] under Proto-oncogene tyrosine-protein kinase Src (Homo sapiens, UniProt P12931) had pIC50 of 4.55

* * *

system.tested: UniProtKB Q15746
Sequence (Q15746 whole entry): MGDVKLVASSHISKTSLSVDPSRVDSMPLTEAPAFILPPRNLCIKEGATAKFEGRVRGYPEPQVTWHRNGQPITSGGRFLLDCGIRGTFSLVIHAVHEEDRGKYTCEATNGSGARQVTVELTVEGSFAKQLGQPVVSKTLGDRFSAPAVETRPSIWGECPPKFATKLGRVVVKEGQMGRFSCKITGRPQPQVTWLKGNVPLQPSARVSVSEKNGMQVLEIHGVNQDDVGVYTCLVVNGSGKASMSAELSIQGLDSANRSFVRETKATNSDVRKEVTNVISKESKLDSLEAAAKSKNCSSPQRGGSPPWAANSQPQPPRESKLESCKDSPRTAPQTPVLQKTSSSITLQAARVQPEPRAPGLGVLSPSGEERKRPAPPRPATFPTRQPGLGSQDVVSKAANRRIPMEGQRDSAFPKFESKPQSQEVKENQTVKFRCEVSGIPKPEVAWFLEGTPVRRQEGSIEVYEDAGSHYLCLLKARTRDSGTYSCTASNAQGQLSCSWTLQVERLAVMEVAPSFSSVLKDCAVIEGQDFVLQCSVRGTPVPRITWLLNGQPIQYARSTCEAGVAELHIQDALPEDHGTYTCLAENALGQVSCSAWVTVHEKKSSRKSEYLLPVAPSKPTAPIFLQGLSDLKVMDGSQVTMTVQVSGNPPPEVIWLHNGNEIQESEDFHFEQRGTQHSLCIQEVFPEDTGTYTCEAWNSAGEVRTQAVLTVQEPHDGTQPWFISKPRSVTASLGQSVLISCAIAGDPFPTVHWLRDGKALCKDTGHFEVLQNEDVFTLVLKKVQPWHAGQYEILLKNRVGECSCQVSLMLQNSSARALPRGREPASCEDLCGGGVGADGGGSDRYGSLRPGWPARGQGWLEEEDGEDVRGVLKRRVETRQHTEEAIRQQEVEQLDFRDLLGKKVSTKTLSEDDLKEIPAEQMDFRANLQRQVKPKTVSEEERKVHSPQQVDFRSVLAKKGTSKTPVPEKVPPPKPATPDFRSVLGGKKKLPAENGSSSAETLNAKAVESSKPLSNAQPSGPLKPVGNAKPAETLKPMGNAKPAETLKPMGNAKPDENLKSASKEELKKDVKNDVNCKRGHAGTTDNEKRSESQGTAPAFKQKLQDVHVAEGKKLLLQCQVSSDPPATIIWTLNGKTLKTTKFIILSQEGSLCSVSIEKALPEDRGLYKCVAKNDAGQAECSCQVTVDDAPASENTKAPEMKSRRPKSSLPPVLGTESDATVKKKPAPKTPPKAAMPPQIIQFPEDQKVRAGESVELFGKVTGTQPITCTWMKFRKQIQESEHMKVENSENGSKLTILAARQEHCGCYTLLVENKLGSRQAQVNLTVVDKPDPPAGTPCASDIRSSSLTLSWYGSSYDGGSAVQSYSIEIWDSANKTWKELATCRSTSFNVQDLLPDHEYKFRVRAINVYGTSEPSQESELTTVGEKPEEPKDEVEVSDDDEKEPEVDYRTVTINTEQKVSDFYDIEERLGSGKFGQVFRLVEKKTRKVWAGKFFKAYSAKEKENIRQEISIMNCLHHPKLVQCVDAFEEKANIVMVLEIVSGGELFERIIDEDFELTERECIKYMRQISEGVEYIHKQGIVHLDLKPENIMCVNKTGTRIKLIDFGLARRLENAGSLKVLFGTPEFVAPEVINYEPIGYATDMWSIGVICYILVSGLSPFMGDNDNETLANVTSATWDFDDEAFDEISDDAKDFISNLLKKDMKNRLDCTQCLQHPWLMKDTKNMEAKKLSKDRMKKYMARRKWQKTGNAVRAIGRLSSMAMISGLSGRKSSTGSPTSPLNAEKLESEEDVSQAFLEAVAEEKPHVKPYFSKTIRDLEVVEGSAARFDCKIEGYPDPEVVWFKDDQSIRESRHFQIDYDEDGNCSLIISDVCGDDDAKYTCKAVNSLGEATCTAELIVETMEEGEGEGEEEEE
reported.metric: pIC50
As a rule, pIC50 stands for the negative log10 of the concentration, concentration in M.

Form field, pIC50 with UniProtKB Q15746, item COC[C@H]1OC(=O)c2coc3c2[C@@]1(C)C1=C(C3=O)[C@@H]2CCC(=O)[C@@]2(C)C[C@H]1OC(C)=O [WORTMANNIN] : 5.72

* * *

method.notes: Inhibitory activity against glucose transporter isoform 2 (GLUT2)
reported.metric: pKi
pKi here is simply -log10 of the concentration when that concentration is written in mol/L.

Recorded pKi (compound O=c1c(O)c(-c2ccc(O)c(O)c2)oc2cc(O)cc(O)c12 ): 4.64

* * *

Record type: pIC50 measurement. Applies to: UniProt:P10584
Sequence (P10584 whole entry): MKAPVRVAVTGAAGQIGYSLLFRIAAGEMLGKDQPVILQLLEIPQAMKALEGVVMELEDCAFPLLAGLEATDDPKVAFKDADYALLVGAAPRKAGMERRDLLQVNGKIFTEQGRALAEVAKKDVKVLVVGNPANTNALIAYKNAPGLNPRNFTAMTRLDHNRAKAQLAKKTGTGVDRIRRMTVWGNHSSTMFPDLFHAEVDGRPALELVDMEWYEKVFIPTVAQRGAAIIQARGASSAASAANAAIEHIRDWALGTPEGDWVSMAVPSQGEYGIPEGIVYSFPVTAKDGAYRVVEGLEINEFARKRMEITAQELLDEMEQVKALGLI
As a rule, pIC50 stands for the negative log10 of the concentration, concentration in M.

# annotated cases, reported pIC50 shown
Cn1cc(C2=C(c3cn(CCCSC(=N)N)c4ccccc34)C(=O)NC2=O)c2ccccc21 [BISINDOLYLMALEIMIDE IX] : 4.35
CC(=O)c1c(O)c(C)c(O)c(Cc2c(O)c3c(c(C(=O)/C=C/c4ccccc4)c2O)OC(C)(C)C=C3)c1O [ROTTLERIN] : 6.15
O=c1c(O)c(-c2ccc(O)c(O)c2)oc2cc(O)cc(O)c12 [QUERCETIN] : 5.22
O=C1NCc2c1c1c3ccccc3[nH]c1c1[nH]c3ccccc3c21 [STAUROSPORINONE] : 5.10

Now let's try a different one.
pIC50 recorded for this compound, O=C1Nc2ccccc2/C1=C1/Nc2ccccc2C1=O [INDIRUBIN] , is 4.52

* * *

method.notes: Inhibition of phosphatidylinositol-3-kinase (P13-K)
reported.metric: IC50 (nM)
Just the number in nM, nothing appended.

Recorded result, COC[C@H]1OC(=O)c2coc3c2[C@@]1(C)C1=C(C3=O)[C@@H]2CCC(=O)[C@@]2(C)C[C@H]1OC(C)=O [WORTMANNIN] , IC50: 5
